# Experiment summary: perturbers of mRNA poly(A) processing – luminescence, S. cerevisiae, primary screen (AID 1875);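 note: yeast exposed to compound for 9 h at 30 °C; higher score means more reporter readthrough which indicates perturbed polyadenylation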
# Measurement parameters: S. cerevisiae SKY197-pL101 polyadenylation reporter, beta-gal luminescence; at 12 µM; hits give high values; efflux-impaired pdr1/pdr3 knockout yeast; score 100 = 6 SD above DMSO
Out of some 300,000 compounds screened, about 65 (0.02%) were called active. The entries come from a sample that favours actives as a whole.
Measurement kind: activity score (%)
Just the number please, in %, no unit attached.

# annotated cases, reported activity score shown
COc1cc(CNc2ncn[nH]2)ccc1OCc1ccccc1C	5.71
COc1cc(OC)c(-n2cc(-c3ccc(Cl)cc3)[nH]c2=O)cc1Cl	-4.07
COc1cc(/C=C/C(=O)OCC(=O)NC(=O)NCc2ccccc2)ccc1OCC#N	-0.558
COc1ccc(S(=O)(=O)c2c[nH]c(=S)[nH]c2=O)cc1Cl	11.8
O=C1OCC2=C1C(c1ccccc1)CC(=O)N2c1cccc(F)c1 (stereo unspecified)	19.6

Please find the next compound below.
activity score for `O=C(NC(=S)Nc1cccc2c(O)cccc12)c1cccc(Br)c1` ?
-27

====

# Experiment summary: perturbers of mRNA poly(A) processing – luminescence, S. cerevisiae, primary screen (AID 1875)
# Measurement parameters: S. cerevisiae SKY197-pL101 polyadenylation reporter, beta-gal luminescence; at 12 µM; hits give high values; efflux-impaired pdr1/pdr3 knockout yeast; score 100 = 6 SD above DMSO
In all, about 300,000 compounds went through this assay and about 65 (0.02%) were called active. The entries come from a sample that favours actives as a whole.
Measurement kind: activity score

COc1ccccc1C(=O)NNC(=O)CCN1C(=O)/C(=C\c2ccccc2)SC1=S	-4.37% (inactive)
COc1cc(/C=C2/SC(=S)N(Cc3ccccc3)C2=O)cc(OC)c1O	425% (active)

activity score for CCOc1ccc(N2CC(C(=O)NCc3ccccn3)CC2=O)cc1 (configuration not stated) ?
9.19% (inactive)

Proceed to `COc1cccc(-n2c(=S)sc3c(=O)n(-c4ccccc4C)c(SCC(=O)O)nc32)c1`
27.3% (inactive)

Proceed to C#CCOCCOCCOCCNc1nc(N2CCN(C(=O)C([C@@H](C)CC)n3cc(C(N)COC(=O)C(F)(F)F)nn3)CC2)nc(N2CCN(C(=O)[C@H](CCCCN)n3cc(C(N)CC(C)C)nn3)CC2)n1 (some centres not stated)
-6.03% (inactive)

Proceed to `COC(=O)Nc1ccc(S(=O)(=O)N(C)CC(F)(F)C(F)F)cc1`
3.96% (inactive)

====

# Experiment summary: perturbers of mRNA poly(A) processing – luminescence, S. cerevisiae, primary screen (AID 1875)
# Measurement parameters: S. cerevisiae SKY197-pL101 polyadenylation reporter, beta-gal luminescence; at 12 µM; hits give high values; efflux-impaired pdr1/pdr3 knockout yeast; score 100 = 6 SD above DMSO
About 65 (0.02%) of roughly 300,000 compounds were called active. Shown is part of a subset that was picked to be rich in actives.
Item-by-item account of activity score
Just the number please, in %, no unit attached.

O=C1c2ccccc2C(=O)N1Cc1cc(-c2ccccc2Cl)no1	16.1
CN(CCO)c1ccc(/C=N/Nc2nncc3ccccc23)cc1	-9.02
CC(C)Cc1nn2c(=O)cc(O)nc2s1	4.85
CCN1C(=O)N[C@@H](CCc2ccccc2)C(C(=O)OC)=C1C	-17.2
O=[N+]([O-])c1cc(C(F)(F)F)ccc1NCCc1ccncc1	-17.4
COc1ccccc1OCc1ccc(C(=O)NC(C)c2ccccc2)o1 (stereo not given)	9.72

Please find the next compound below.
activity score for `COc1cccc(NC(=O)Cn2c3ccc(F)cc3c3nc4n(c(=O)c32)CCS4)c1` ?
-13.2

====

# Experiment summary: perturbers of mRNA poly(A) processing – luminescence, S. cerevisiae, primary screen (AID 1875)
# Measurement parameters: S. cerevisiae SKY197-pL101 polyadenylation reporter, beta-gal luminescence; at 12 µM; hits give high values; efflux-impaired pdr1/pdr3 knockout yeast; score 100 = 6 SD above DMSO
The campaign covered roughly 300,000 compounds. About 65 (0.02%) were called active. For the sample, actives were picked, then their nearest neighbours and some compounds at random.
Item-by-item account of activity score
Just the number please, in %, no unit attached.

# annotated cases, reported activity score shown
Cc1ccc(CNC(=O)C2CCN(S(=O)(=O)c3ccc4nc5c(c(C(=O)O)c4c3)CC(C)CC5)CC2)cc1 (stereo unspecified)	-6.73
COc1ccccc1OCC(=O)Nc1ccccc1C(=O)NC1CC1	-4.06
O=C(CN1CCOCC1)Nc1c2c(nc3c1CCC3)CCC2	1.76

activity score for `CN(C)Cc1c(O)ccc2c(=O)c(-c3ccccc3Cl)coc12` ?
8.63

Proceed to `COC(=O)c1c(C)[nH]c(C(=O)/C=C/c2ccc(Cl)cc2)c1C`
-2.04

Proceed to `CN(C)C(=O)c1ccc(NC(=O)c2ccccc2-c2ccccc2)cc1`
-1.15

Proceed to O=C1C2C3C=CC(C3)C2C(=O)N1c1ccc(S(=O)(=O)Nc2nccs2)cc1 (stereo unspecified)
-1.69

Proceed to `COc1ccc(-c2nn(-c3ccccc3)cc2CN2CCCO2)c(F)c1`
0.939

====

Item-by-item account of activity score
# Experiment summary: perturbers of mRNA poly(A) processing – luminescence, S. cerevisiae, primary screen (AID 1875)
# Measurement parameters: S. cerevisiae SKY197-pL101 polyadenylation reporter, beta-gal luminescence; at 12 µM; hits give high values; efflux-impaired pdr1/pdr3 knockout yeast; score 100 = 6 SD above DMSO
In all, about 300,000 compounds went through this assay and about 65 (0.02%) were called active. The full list was thinned out, with actives kept by preference.
Just the number please, in %, no unit attached.

# annotated cases, reported activity score shown
N#Cc1ccc(S(=O)(=O)NCC(=O)OCC(=O)NCCc2ccccc2)cc1	3.63
Cc1ccn2c(=O)nc(SCC(=O)NCc3ccc4c(c3)OCO4)nc2c1	17.3
COC(=O)c1ccc(SCc2ccccc2)nc1	5.84

activity score for COc1ccc(C2/C=C\CN(S(=O)(=O)c3cccs3)CC(=O)N2Cc2ccc(F)cc2)cc1 (stereo unspecified) ?
1.94

Proceed to COc1ccc(C(CNC(=O)c2ccc(S(=O)(=O)Nc3ccccc3F)cc2)N(C)C)cc1 (stereo unspecified)
4.77

====

# Experiment summary: perturbers of mRNA poly(A) processing – luminescence, S. cerevisiae, primary screen (AID 1875);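 note: yeast exposed to compound for 9 h at 30 °C; higher score means more reporter readthrough which indicates perturbed polyadenylation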
# Measurement parameters: S. cerevisiae SKY197-pL101 polyadenylation reporter, beta-gal luminescence; at 12 µM; hits give high values; efflux-impaired pdr1/pdr3 knockout yeast; score 100 = 6 SD above DMSO
Out of some 300,000 compounds screened, about 65 (0.02%) were called active. The full list was thinned out, with actives kept by preference.
Measurement kind: activity score (%)
Just the number please, in %, no unit attached.

# annotated cases, reported activity score shown
COc1cc(NC(=O)c2ccc(CNc3c(N4CCCC4)c(=O)c3=O)cc2)cc(OC)c1OC	19.5
Cc1c(NS(=O)(=O)c2ccc(NC3CCCC3)c([N+](=O)[O-])c2)c(=O)n(-c2ccccc2)n1C	0.246

Please find the next compound below.
activity score for O=C(NCCc1ccccc1)C1CCC(Cn2c(=O)c3ccccc3n(Cc3cccnc3)c2=O)CC1 (stereo not drawn) ?
-5.99

====

# Experiment summary: perturbers of mRNA poly(A) processing – luminescence, S. cerevisiae, primary screen (AID 1875);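 note: yeast exposed to compound for 9 h at 30 °C; higher score means more reporter readthrough which indicates perturbed polyadenylation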
# Measurement parameters: S. cerevisiae SKY197-pL101 polyadenylation reporter, beta-gal luminescence; at 12 µM; hits give high values; efflux-impaired pdr1/pdr3 knockout yeast; score 100 = 6 SD above DMSO
The whole screen tested about 300,000 compounds, of which about 65 (0.02%) were called active. The sample holds actives, similar compounds and a random draw of the others, so the mix is not that of the screen.
Item-by-item account of activity score

CC1(C)C(C=C(Cl)Cl)C1C(=O)N(Cc1ccc(Cl)cc1)C1CCS(=O)(=O)C1 (stereo not drawn)	-12.2% (inactive)
Brc1ccccc1/C=N/Nc1nc2ccccc2o1	-16.6% (inactive)
CCCCn1c(N)c(N(CCOC)C(=O)c2oc3ccc(OC)cc3c2C)c(=O)[nH]c1=O	-1.46% (inactive)
Cc1ccc2nc(SCC(=O)Nc3cccc4ccccc34)nc(=O)n2c1	-16.5% (inactive)

activity score for `CCc1ccc2nc3sc(C(=O)Nc4nnc(CC)s4)c(N)c3cc2c1` ?
34.8% (inactive)

Proceed to `Cc1ccc(NS(=O)(=O)c2ccc(C(C)(C)C)cc2)cn1`
-9.91% (inactive)

Proceed to Cc1cc(C)c(OCC(=O)N(Cc2cccs2)C2CCS(=O)(=O)C2)c(C)c1 (stereo not drawn)
21.1% (inactive)

====

Item-by-item account of activity score
# Experiment summary: perturbers of mRNA poly(A) processing – luminescence, S. cerevisiae, primary screen (AID 1875);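 note: yeast exposed to compound for 9 h at 30 °C; higher score means more reporter readthrough which indicates perturbed polyadenylation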
# Measurement parameters: S. cerevisiae SKY197-pL101 polyadenylation reporter, beta-gal luminescence; at 12 µM; hits give high values; efflux-impaired pdr1/pdr3 knockout yeast; score 100 = 6 SD above DMSO
About 65 (0.02%) of roughly 300,000 compounds were called active. This excerpt belongs to a sample that is enriched for actives.
Just the number please, in %, no unit attached.

# annotated cases, reported activity score shown
Cc1c(S(=O)(=O)N2CC(C)CC(C)C2)c(=O)n(C)c(=O)n1C (stereo unspecified)	11.6
Cn1c(N)c(C(=O)COC(=O)/C=C/c2ccc(OC(F)F)cc2)c(=O)n(C)c1=O	0.664
O=C1N(Cc2ccc3c(c2)OCO3)c2ccccc2C1(O)c1c[nH]c2ccccc12 (stereo unspecified)	-1.62
COc1ccc(OC)c(NC(=O)CSc2nc(-c3ccccc3)cc(=O)[nH]2)c1	-4.65
Cc1ccccc1N1C(=O)C(Oc2ccc(Cl)cc2)C1CNCC1CCCO1 (stereo unspecified)	-13.7

activity score for `COC(=O)CSc1ccc2nnc(CCNS(=O)(=O)c3ccc(C)cc3)n2n1` ?
6.76

Proceed to `O=C(COC(=O)Cc1ccccc1F)NNC(=O)c1ccc(Cl)cc1`
0.16

Proceed to `Cc1ccc(-c2cc(C(=O)NCc3cn(C)nc3C)c3cc(Br)ccc3n2)cc1`
2.61
